- testSystem: Casein kinase II subunit alpha (Homo sapiens)
- experimentalSetup: at 0.1 µM
- Description: GSK_PKIS: CK2 mean inhibition at 0.1 uM [Nanosyn]
Category | rule: reported inhibition within range, see band 1: < 2%; band 2: ≥ 2% and < 5%; band 3: ≥ 5%

Previously resolved entries follow.
INSERT INTO results (compound, classlabel) VALUES
  ('OCCCNc1nccc(-c2c(-c3ccc(F)cc3)nn3cc(C(F)(F)F)ccc23)n1', 'band 1'),
  ('COc1cccc(Nc2nccc(-c3cnn4ncccc34)n2)c1', 'band 3'),
  ('COc1cc(Nc2ncc(-c3ccccc3)o2)cc(OC)c1', 'band 2'),
  ('CN(c1ccc(NC(=O)NCCN2CCOCC2)cc1)c1ccnc(Nc2ccc(CS(C)(=O)=O)cc2)n1', 'band 3'),
  ('CCS(=O)(=O)c1ccc(OC)c(Nc2ncc(-c3cccc(C(C)=O)c3)o2)c1', 'band 3'),
  ('CC1(C)CC(n2cnc(-c3ccc(F)cc3)c2-c2ccnc(N)n2)CC(C)(C)N1', 'band 1'),
  ('N#Cc1cccc(Nc2ncc(-c3ccccc3)o2)c1', 'band 2'),
  ('CC(C)c1ccc(-c2cc(-c3c[nH]nc3-c3ccccn3)ccn2)cc1', 'band 1'),
  ('NS(=O)(=O)c1ccc(N/N=C2\C(=O)Nc3cccc(CCc4ccncc4)c32)cc1', 'band 3'),
  ('c1cnn2ncc(-c3ccnc(NCCCN4CCOCC4)n3)c2c1', 'band 1');

Which class holds COc1cc(N2CCN(C(C)C)CC2)ccc1Nc1nc(Nc2cccc(F)c2C(=O)O)c2cc[nH]c2n1 ?
band 3

Please classify: NC(=O)c1ccc2c(-c3ccnc(NCCCO)n3)c(-c3ccc(F)cc3)nn2c1
band 2

Would you mind sorting COC(=O)Nc1nc2cc(Oc3ccc(NC(=O)Nc4ccccc4)cc3)ccc2[nH]1 into the appropriate category?
band 1

GET /class?item= O=C(O[C@H]1CN[C@H](C#Cc2cc3ncnc(Nc4ccc(OCc5cccc(F)c5)c(Cl)c4)c3s2)C1)N1CCOCC1
band 2

State the band of CC1=C(C(=O)Nc2ccc3[nH]nc(C)c3c2)C(c2ccc(C(F)(F)F)cc2)CC(=O)N1 (configuration not stated)
band 1

// return the class label for CCN1CCC(C(=O)Nc2n[nH]c3nnc(-c4cccc(F)c4F)cc23)CC1
band 3

Hi there! Could you help me figure out the category for CNC(=O)c1sc(-n2cnc3cc(OC)c(OC)cc32)cc1OCc1ccccc1C(F)(F)F please?
band 3

Category lookup for the compound CS(=O)(=O)CCNCc1ccoc1-c1ccc2ncnc(Nc3ccc(OCc4ccccc4)cc3)c2c1
band 2

Hi, small favor: classify CS(=O)(=O)Nc1ccc(-c2ccc3c(NC(=O)C4CC4)n[nH]c3c2)cc1 by its inhibition when you get a moment.
band 2

In plain terms, what class is CN1CCC(n2cnc(-c3ccc(F)cc3)c2-c2ccnc(NCCO)n2)CC1 ?
band 2

Pick a category. Item: CCS(=O)(=O)c1ccc(OC)c(Nc2ncc(-c3cccc(F)c3)o2)c1
band 3

###

- testSystem: Serine/threonine-protein kinase PLK1 (Homo sapiens) (UniProt P53350);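 note: reported value is a mean PLK1 inhibition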
- Sequence (P53350 whole entry): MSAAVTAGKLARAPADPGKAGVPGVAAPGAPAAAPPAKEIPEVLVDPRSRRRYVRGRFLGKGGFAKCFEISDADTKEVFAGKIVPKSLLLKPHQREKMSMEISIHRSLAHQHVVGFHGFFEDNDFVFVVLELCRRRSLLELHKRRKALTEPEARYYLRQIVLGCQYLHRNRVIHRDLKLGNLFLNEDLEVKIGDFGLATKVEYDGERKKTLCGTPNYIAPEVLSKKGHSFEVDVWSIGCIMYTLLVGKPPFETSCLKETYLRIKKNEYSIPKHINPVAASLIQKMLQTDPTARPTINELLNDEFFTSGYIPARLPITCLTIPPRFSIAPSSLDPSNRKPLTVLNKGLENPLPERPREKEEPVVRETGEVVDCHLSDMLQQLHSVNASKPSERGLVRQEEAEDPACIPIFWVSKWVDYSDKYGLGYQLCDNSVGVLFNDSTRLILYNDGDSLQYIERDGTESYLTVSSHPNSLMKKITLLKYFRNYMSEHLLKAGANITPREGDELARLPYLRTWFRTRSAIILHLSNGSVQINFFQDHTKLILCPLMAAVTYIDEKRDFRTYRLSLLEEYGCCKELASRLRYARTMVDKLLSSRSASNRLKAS
- experimentalSetup: at 1 µM
reportedEndpoint: inhibition (%)
Lab book: enter the figure in %, no units written.

INSERT INTO measurements (givensmiles, unitslabel, valuemeasured) VALUES
  ('COC(=O)Nc1nc2ccc(Oc3ccc(NC(=O)Nc4cc(C(F)(F)F)ccc4F)cc3)cc2s1', '%', 0.38),
  ('CN(c1ccc(NC(=O)NCCN2CCOCC2)cc1)c1ccnc(Nc2ccc(CS(C)(=O)=O)cc2)n1', '%', 1.42),
  ('CS(=O)(=O)Nc1ccc(-c2ccc3c(NC(=O)C4CC4)n[nH]c3c2)cc1', '%', 4.87),
  ('Cn1c(-c2nonc2N)nc2cnccc21', '%', 5.16),
  ('COc1cccc(Nc2nccc(-c3cnn4ncccc34)n2)c1', '%', 21.3);

Item under review: NS(=O)(=O)c1ccc(N/N=C2\C(=O)Nc3cccc(CCc4ccncc4)c32)cc1 . Reported inhibition?
1.59

Consider the compound O=C(O[C@H]1CN[C@H](C#Cc2cc3ncnc(Nc4ccc5c(ccn5Cc5cc(F)ccc5F)c4)c3s2)C1)N1CCOCC1 and give its measured inhibition.
10.8

Find the recorded inhibition belonging to CC1(C)CC(n2cnc(-c3ccc(F)cc3)c2-c2ccnc(N)n2)CC(C)(C)N1 and report it.
0.76

Find the recorded inhibition belonging to CC(C)c1ccc(-c2cc(-c3c[nH]nc3-c3ccccn3)ccn2)cc1 and report it.
0.41

Form field: reported inhibition of COc1cc(N2CCN(C(C)C)CC2)ccc1Nc1nc(Nc2cccc3ncccc23)c2cc[nH]c2n1
0.8

Consider the compound CN1CCC(n2cnc(-c3ccc(F)cc3)c2-c2ccnc(NCCO)n2)CC1 and give its measured inhibition.
2.42

For the compound shown here, NC(=O)c1ccc2c(-c3ccnc(NCCCO)n3)c(-c3ccc(F)cc3)nn2c1 , give the reported inhibition.
4.03

Query (compound): O=C(O[C@H]1CN[C@H](C#Cc2cc3ncnc(Nc4ccc5c(cnn5Cc5ccccc5)c4)c3s2)C1)N1CCOCC1 ; field requested: inhibition
1.79

Query (compound): COc1cc(N2CCN(C(C)C)CC2)ccc1Nc1nc(Nc2cccc(F)c2C(=O)O)c2cc[nH]c2n1 ; field requested: inhibition
29.6

###

Reported inhibition values follow for various compounds
- testSystem: Tyrosine-protein kinase TXK (Homo sapiens) (UniProt P42681);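 note: value given is the mean percent inhibition of TXK kinase activity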
- Sequence (P42681 whole entry): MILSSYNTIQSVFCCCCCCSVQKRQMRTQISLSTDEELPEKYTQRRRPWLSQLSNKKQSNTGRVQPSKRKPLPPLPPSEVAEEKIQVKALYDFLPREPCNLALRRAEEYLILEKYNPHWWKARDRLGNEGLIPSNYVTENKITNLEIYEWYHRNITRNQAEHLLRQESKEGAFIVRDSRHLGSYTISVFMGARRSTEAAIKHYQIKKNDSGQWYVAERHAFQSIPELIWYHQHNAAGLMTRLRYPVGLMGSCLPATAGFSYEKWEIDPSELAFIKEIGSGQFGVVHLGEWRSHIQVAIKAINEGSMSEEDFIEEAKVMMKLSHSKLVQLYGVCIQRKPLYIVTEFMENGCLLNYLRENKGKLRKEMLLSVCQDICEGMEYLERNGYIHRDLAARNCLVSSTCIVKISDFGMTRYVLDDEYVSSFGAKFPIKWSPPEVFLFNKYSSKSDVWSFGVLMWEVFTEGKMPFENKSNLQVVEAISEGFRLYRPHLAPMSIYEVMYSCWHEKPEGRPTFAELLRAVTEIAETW
- experimentalSetup: at 1 µM
Give the quantity in %, number only.

Quick check: inhibition of c1cnn2ncc(-c3ccnc(NCCCN4CCOCC4)n3)c2c1 ?
-0.63

Look up inhibition for this compound: COc1ccc(Nc2ncc(-c3ccccc3)o2)cc1OC
17.8

GET /values?readout=inhibition&item= CS(=O)(=O)CCNCc1ccc(-c2ccc3ncnc(Nc4ccc(OCc5ccccc5)cc4)c3c2)o1
3.39

Using the record for Cc1nnc(-c2cccc(-c3ccc(C(=O)NCC4CC4)cc3)c2)o1 , report its inhibition.
3.16

###

- Test system: Proto-oncogene tyrosine-protein kinase receptor Ret (Homo sapiens), P07949 [Y791F]
- Sequence (P07949 whole entry Y791F): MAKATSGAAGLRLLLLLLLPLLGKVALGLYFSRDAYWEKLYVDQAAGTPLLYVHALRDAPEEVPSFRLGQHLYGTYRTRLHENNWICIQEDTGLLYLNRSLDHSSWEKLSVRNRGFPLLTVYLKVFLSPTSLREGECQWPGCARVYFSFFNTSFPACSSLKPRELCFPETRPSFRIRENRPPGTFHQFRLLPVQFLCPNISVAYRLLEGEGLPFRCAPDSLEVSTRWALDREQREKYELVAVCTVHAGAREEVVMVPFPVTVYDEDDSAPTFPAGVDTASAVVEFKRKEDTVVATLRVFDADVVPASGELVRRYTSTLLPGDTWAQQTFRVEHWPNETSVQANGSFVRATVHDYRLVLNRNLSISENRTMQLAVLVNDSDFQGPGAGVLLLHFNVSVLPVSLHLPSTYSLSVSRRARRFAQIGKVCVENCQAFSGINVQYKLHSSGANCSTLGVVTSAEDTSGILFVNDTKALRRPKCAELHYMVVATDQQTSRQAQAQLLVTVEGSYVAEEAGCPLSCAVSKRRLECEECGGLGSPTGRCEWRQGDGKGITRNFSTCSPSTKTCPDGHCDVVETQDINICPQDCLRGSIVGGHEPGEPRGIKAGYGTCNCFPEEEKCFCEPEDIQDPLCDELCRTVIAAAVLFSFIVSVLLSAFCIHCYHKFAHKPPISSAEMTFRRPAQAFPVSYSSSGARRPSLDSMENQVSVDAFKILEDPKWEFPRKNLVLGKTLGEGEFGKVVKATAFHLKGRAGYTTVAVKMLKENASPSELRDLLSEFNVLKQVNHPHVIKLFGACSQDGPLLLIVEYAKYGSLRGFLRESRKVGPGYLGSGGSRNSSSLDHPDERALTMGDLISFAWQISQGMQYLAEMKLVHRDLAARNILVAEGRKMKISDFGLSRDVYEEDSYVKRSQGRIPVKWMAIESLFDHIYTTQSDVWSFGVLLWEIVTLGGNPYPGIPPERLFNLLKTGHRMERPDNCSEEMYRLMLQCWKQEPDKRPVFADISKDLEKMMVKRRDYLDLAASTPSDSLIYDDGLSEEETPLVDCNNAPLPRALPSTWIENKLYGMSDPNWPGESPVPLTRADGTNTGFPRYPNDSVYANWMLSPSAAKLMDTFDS
- experimentalSetup: at 0.1 µM
// values below are reported inhibition
Value expressed in %; do not type the unit.

Examples with their reported inhibition follow.
INSERT INTO assay_data (molecule, unitslabel, valuemeasured) VALUES
  ('CS(=O)(=O)Nc1ccc(-c2cc(-c3ccccc3)cc(C(N)=O)c2N)cc1', '%', 4),
  ('Fc1ccc(Nc2nccc(-c3c(-c4ccc(C(F)(F)F)cc4)nn4ncccc34)n2)cc1F', '%', 5.34),
  ('FC(F)(F)CNc1nccc(-c2cnn3ncccc23)n1', '%', 1.04),
  ('CCS(=O)(=O)c1ccc(OC)c(Nc2ncc(-c3cccc(C(C)=O)c3)o2)c1', '%', 6.91),
  ('N#Cc1ccc2c(-c3ccnc(NC4CC4)n3)c(-c3ccc(F)cc3)nn2c1', '%', 4.65),
  ('Cc1cc(O)cc(C)c1/C=C/c1cncc(C(=O)OC(C)(C)C)c1', '%', 4.05);

Endpoint output: inhibition of CCS(=O)(=O)c1ccc(OC)c(Nc2ncc(-c3cccc(F)c3)o2)c1 . Value?
15.9

Sample Cc1c2ccc(N(C)c3ccnc(Nc4cccc(S(N)(=O)=O)c4)n3)cc2nn1C — what was its inhibition?
60.6

Name the reported inhibition value associated with the molecule CNC(=O)c1cncc(/C=C/c2ccccc2C)c1
2.57

Reported inhibition, molecule COc1c(C(N)=O)cc(-c2ccc(Cl)cc2)cc1-c1ccc(S(N)(=O)=O)cc1 : ____
6.18

Name the recorded inhibition for O=C1Nc2ccccc2/C1=C1\CCc2cc(O)ccc21 .
25.8

Need inhibition of CC1=C(C(=O)Nc2ccc3[nH]ncc3c2)C(c2ccc(F)cc2)N=C(c2ccc(C(F)(F)F)nc2)N1 (centres undefined) , thanks.
9.49

Field request: inhibition | item: Fc1cccc(COc2ccc(Nc3ncncc3C#Cc3ccccc3)cc2Cl)c1
5.33

What measured inhibition goes with CN(c1ccc(NC(=O)NCCN2CCOCC2)cc1)c1ccnc(Nc2ccc(CS(C)(=O)=O)cc2)n1 ?
29.1

// lookup inhibition for CN(C)CCNC(=O)Nc1ccc(N(C)c2ccnc(Nc3ccc(CS(C)(=O)=O)cc3)n2)cc1
9.9

# inhibition lookup, item c1cnn2ncc(-c3ccnc(NCCCN4CCOCC4)n3)c2c1
6.04

# get_value(readout='inhibition', item= COc1ccc(Nc2ncc(-c3ccccc3)o2)cc1OC )
6.85

Record request: inhibition value, item CNC(=O)c1sc(-n2cnc3cc(OC)c(OC)cc32)cc1OCc1ccccc1C(F)(F)F
8.02

###

- testSystem: Cyclin-dependent kinase 6 (Homo sapiens) (UniProt Q00534);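 note: mean percent inhibition of CDK6 complexed with cyclin D3, from the GSK PKIS kinase inhibitor screen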
- Sequence (Q00534 whole entry): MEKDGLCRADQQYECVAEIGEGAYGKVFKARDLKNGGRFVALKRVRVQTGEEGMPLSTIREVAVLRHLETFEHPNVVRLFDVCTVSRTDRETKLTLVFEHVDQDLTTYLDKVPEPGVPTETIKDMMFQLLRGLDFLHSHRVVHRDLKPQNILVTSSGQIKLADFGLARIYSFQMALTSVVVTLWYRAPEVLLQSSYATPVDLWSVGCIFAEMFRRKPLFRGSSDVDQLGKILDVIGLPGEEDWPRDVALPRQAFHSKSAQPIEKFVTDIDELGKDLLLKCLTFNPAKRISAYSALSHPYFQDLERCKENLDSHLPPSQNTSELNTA
- experimentalSetup: at 0.1 µM
# inhibition per entry
Expressed in %, but write only the number.

Completed entries (count: 8):
INSERT INTO results (givensmiles, reportedendpoint, valuemeasured) VALUES
  ('Cc1cc(O)cc(C)c1/C=C/c1cncc(C(=O)OC(C)(C)C)c1', 'inhibition', 3.38),
  ('COc1cc(N2CCN(C(C)C)CC2)ccc1Nc1nc(Nc2cccc(F)c2C(=O)O)c2cc[nH]c2n1', 'inhibition', 5.01),
  ('O=C(O[C@H]1CN[C@H](C#Cc2cc3ncnc(Nc4ccc5c(ccn5Cc5cc(F)ccc5F)c4)c3s2)C1)N1CCOCC1', 'inhibition', -1.14),
  ('COc1cc(N2CCN(C(C)C)CC2)ccc1Nc1nc(Nc2cccc3ncccc23)c2cc[nH]c2n1', 'inhibition', 1.04),
  ('CS(=O)(=O)CCNCc1ccoc1-c1ccc2ncnc(Nc3ccc(OCc4ccccc4)cc3)c2c1', 'inhibition', -0.43),
  ('COc1cc(Nc2ncc(-c3ccccc3)o2)cc(OC)c1', 'inhibition', 4.07),
  ('Cc1ccc(-c2cc3c(NC(=O)C4CC4)ncnc3o2)cc1', 'inhibition', 1.55),
  ('COc1ccccc1-c1cc(/C=C2\C(=O)Nc3ncc(Br)cc32)cc(Br)c1O', 'inhibition', 1.08);

From here, focus on the item given below.
Record request: inhibition value, item CS(=O)(=O)Nc1ccc(-c2cc(-c3ccccc3)cc(C(N)=O)c2N)cc1
-0.52
